test-target: Metabotropic glutamate receptor 4 (Homo sapiens)
assay-text: Inhibition of c-AMP by human Metabotropic glutamate receptor 4 (mGluR4) expressed in non-neuronal cells
Format: cell-based
observable: Activity (µM)
State the answer as a number, implicitly in µM.

Provide Activity, system Metabotropic glutamate receptor 4 (Homo sapiens), entry `N[C@@]1(C(=O)O)CC[C@@H](C(=O)O)C1` 90

Provide Activity, system Metabotropic glutamate receptor 4 (Homo sapiens), entry `N[C@@H](CCC(=O)O)C(=O)O` 12

Provide Activity, system Metabotropic glutamate receptor 4 (Homo sapiens), entry N[C@H](C(=O)O)C1[C@@H](C(=O)O)[C@@H]1C(=O)O (stereo partly drawn) 23

Provide Activity, system Metabotropic glutamate receptor 4 (Homo sapiens), entry `N[C@@]1(C(=O)O)CO[C@H]2[C@H](C(=O)O)[C@H]21` 21

----------
Field: Activity. Provide a value for each of the molecules that follow.
test-target: Metabotropic glutamate receptor 2 (Homo sapiens) (UniProt Q14416)
Sequence (Q14416 19-872 limits assumed): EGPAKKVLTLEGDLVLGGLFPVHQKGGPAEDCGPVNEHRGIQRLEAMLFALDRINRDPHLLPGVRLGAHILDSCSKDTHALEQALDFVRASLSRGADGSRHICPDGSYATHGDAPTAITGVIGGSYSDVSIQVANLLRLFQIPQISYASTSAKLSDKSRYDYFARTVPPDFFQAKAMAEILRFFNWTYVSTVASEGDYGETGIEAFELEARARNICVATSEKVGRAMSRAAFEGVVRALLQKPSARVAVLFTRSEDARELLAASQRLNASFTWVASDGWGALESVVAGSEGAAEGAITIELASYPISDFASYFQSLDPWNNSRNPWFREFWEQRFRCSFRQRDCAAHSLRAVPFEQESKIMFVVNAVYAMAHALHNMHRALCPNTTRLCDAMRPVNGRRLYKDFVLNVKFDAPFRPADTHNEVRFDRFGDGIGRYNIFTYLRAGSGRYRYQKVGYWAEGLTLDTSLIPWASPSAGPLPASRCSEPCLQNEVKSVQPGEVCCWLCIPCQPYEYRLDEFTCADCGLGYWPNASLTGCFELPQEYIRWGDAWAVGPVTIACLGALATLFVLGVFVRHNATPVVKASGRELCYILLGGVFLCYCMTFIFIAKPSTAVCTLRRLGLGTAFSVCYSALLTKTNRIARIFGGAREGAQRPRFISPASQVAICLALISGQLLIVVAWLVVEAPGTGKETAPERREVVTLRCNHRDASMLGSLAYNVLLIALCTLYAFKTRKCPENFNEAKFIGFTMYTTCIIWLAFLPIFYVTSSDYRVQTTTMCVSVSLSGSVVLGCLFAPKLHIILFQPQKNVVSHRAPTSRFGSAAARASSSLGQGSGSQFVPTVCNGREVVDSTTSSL
assay-text: Inhibition of c-AMP by human Metabotropic glutamate receptor 2 (mGluR2) expressed in non-neuronal cells
Type: cell-based
State the answer as a number, implicitly in nM.

Give reported Activity value for `COC[C@H]1[C@H](C(=O)O)[C@H]1[C@H](N)C(=O)O` 100

Give reported Activity value for `N[C@@]1(C(=O)O)CO[C@H]2[C@H](C(=O)O)[C@H]21` 3

Give reported Activity value for `N[C@@]1(C(=O)O)CC[C@@H](C(=O)O)C1` 12000

Give reported Activity value for `N[C@H](C(=O)O)[C@H]1C[C@@H]1C(=O)O` 300

Give reported Activity value for `C[C@H]1[C@H](C(=O)O)[C@H]1[C@H](N)C(=O)O` 8

Give reported Activity value for `C[C@@H]1[C@H](C(=O)O)[C@H]1[C@H](N)C(=O)O` 188

Give reported Activity value for `N[C@@]1(C(=O)O)CC[C@H]2[C@H](C(=O)O)[C@H]21` 7.9

Give reported Activity value for N[C@H](C(=O)O)C1[C@@H](C(=O)O)[C@@H]1C(=O)O (stereo partly specified) 300

Give reported Activity value for `N[C@@]1(C(=O)O)CC[C@@H]2[C@H]1[C@@]2(F)C(=O)O` 16.6

Give reported Activity value for `COC[C@@H]1[C@H](C(=O)O)[C@H]1[C@H](N)C(=O)O` 300

Give reported Activity value for `N[C@@]1(C(=O)O)CS[C@H]2[C@H](C(=O)O)[C@H]21` 4

----------
test-target: Metabotropic glutamate receptor 4 (Homo sapiens)
assay-text: Inhibition of c-AMP by human Metabotropic glutamate receptor 4 (mGluR4) expressed in non-neuronal cells
Type: cell-based
Field: Activity. Provide a value for each of the molecules that follow.

Give reported Activity value for `C[C@H]1[C@H](C(=O)O)[C@H]1[C@H](N)C(=O)O` > 100 µM

Give reported Activity value for `N[C@@]1(C(=O)O)CC[C@@H]2[C@H]1[C@@]2(F)C(=O)O` > 100 µM

Give reported Activity value for `N[C@@]1(C(=O)O)CC[C@H]2[C@H](C(=O)O)[C@H]21` > 100 µM

Give reported Activity value for `N[C@@]1(C(=O)O)CS[C@H]2[C@H](C(=O)O)[C@H]21` > 100 µM
